These entries and their values trace back to ChEMBL document CHEMBL2029303.

Consider the following molecules; for each one, report its diameter of the inhibition zone (DIZ).
test system: Bacillus subtilis; assay: Antibacterial activity against Bacillus subtilis ATCC 6633 at 50 uL of 2 mM solution of compound in 1:9 DMSO/MeOH after 24 hrs by agar diffusion method; type: functional
The figure you give is taken to be in mm; do not add the unit.

Could you tell me which diameter of the inhibition zone (DIZ) is on file for CC(C)(C)OC(=O)N1OC2CCC1C21CCN(c2ccc(N3C[C@H](CO)OC3=O)cc2F)CC1 (some centres undefined) ?
23.5

Using the record for CC(=O)NC[C@H]1CN(c2ccc(N3CCC4(CC3)C3CCC4N(C(=O)OC(C)(C)C)O3)c(F)c2)C(=O)O1 (some centres undefined) , report its diameter of the inhibition zone (DIZ).
25

For the molecule CC(C)(C)OC(=O)N1OC2CCC1C21CCN(c2ccc(N3C[C@H](CN)OC3=O)cc2F)CC1 (some centres undefined) , what diameter of the inhibition zone (DIZ) is on record?
12

Report diameter of the inhibition zone (DIZ) for CC(=O)NC[C@H]1CN(c2ccc(N3CCC4(CC3)C(O)CCC4NC(=O)OC(C)(C)C)c(F)c2)C(=O)O1 (some centres undefined) please.
14

====

test system: Mycobacterium tuberculosis; test: Antimycobacterial activity against Mycobacterium tuberculosis H37Rv grown in glycerol-alanine-salts media; assay type: functional
Would you kindly list MIC for each of these molecules?
Answer in µM, number only, no unit symbol.

Given the entry CC(C)(C)OC(=O)N1OC2CCC1C21CCN(c2ccc(N3C[C@H](COS(C)(=O)=O)OC3=O)cc2F)CC1 (stereo partly drawn) , what MIC was observed with Mycobacterium tuberculosis?
118

Query MIC on Mycobacterium tuberculosis for CCCC(=O)OC[C@H]1CN(c2ccc(N3CCC4(CC3)C3CCC4N(C(=O)OC(C)(C)C)O3)c(F)c2)C(=O)O1 (stereo partly drawn)
19.2

Item CC(=O)NC[C@H]1CN(c2ccc(N3CCC4(CC3)C3CCC4N(C(=O)OC(C)(C)C)O3)c(F)c2)C(=O)O1 (stereo partly drawn) with Mycobacterium tuberculosis - MIC?
24.4

Request - read-out MIC | tested on Mycobacterium tuberculosis | molecule CC(C)(C)OC(=O)N1OC2CCC1C21CCN(c2ccc(N3C[C@H](CO)OC3=O)cc2F)CC1 (stereo partly drawn)
97

====

Exercise: state measured CC50 for each of the molecules provided.
experiment: Cytotoxicity against human HepG2 cells; assay type: cell-based

# get_value(readout='CC50', item= CC(=O)NC[C@H]1CN(c2ccc(N3CCC4(CC3)C3CCC4N(C(=O)OC(C)(C)C)O3)c(F)c2)C(=O)O1 (some centres not stated) )
> 100 µM

Please give the measured CC50 for this molecule: CC(C)(C)OC(=O)N1OC2CCC1C21CCN(c2ccc(N3C[C@H](CO)OC3=O)cc2F)CC1 (some centres not stated)
> 100 µM
